- test: Rodent pharmacokinetics (rat PK)
- Type: in vivo
- test context: po, dosed intravenously or orally by gavage, plasma, read-out: F % (bioavailability)
Each entry below lists one item and its recorded bioavailability value.

Below are worked cases with known answers.
COc1ccc2c(c1N1CC3(CCN(C[C@H]4CC[C@H](n5cc6cc(NC(=O)c7cncc(C#N)c7)c(C(C)(C)O)cc6n5)CC4)CC3(F)F)C1)n(C)c(=O)n2C1CCC(=O)NC1=O (mixture of isomers) = ≤ 5%
Cn1c(=O)n(C2CCC(=O)NC2=O)c2cccc(N3CC(OC[C@H]4CC[C@H](n5cc(NC(=O)c6cnn7ccc(N8C[C@H]9C[C@@H]8CO9)nc67)c(C(F)F)n5)CC4)C3)c21 (stereo partly shown) = ≤ 5%
Cn1c(=O)n(C2CCC(=O)NC2=O)c2cccc([C@@H]3CCN(C[C@H]4CC[C@H](n5cc6cc(NC(=O)c7cncc(C(F)(F)F)n7)c(C#N)cc6n5)CC4)C[C@H]3F)c21 (stereo partly shown) = ≤ 5%
Cn1c(=O)n(C2CCC(=O)NC2=O)c2cccc([C@@H]3CCN(C[C@H]4CC[C@H](n5cc6cc(NC(=O)c7cncc(C(F)(F)F)n7)c(C(F)F)cc6n5)CC4)C[C@H]3F)c21 (stereo partly shown) = ≤ 5%

Assign bioavailability to the following record: Cn1c(=O)n(C2CCC(=O)NC2=O)c2cccc(N3CCC4(CCN(C[C@H]5CC[C@H](n6cc7cc(NC(=O)c8cncc(F)c8)c(C(C)(C)O)cc7n6)CC5)CC4(F)F)CC3)c21 (stereo partly shown) ≥ 5%

Provide one value: measured bioavailability of COc1cc2nn([C@H]3CC[C@H](CN4CCC5(CCN(c6cccc7c6n(C)c(=O)n7C6CCC(=O)NC6=O)CC5)C(F)(F)C4)CC3)cc2cc1C(=O)Nc1cncc(C#N)c1 (stereo partly shown) ≤ 5%

State, in one line, measured bioavailability of Cn1c(=O)n(C2CCC(=O)NC2=O)c2cccc(N3CCC4(CCN(C[C@H]5CC[C@H](n6cc7cc(NC(=O)c8cncc(C(F)(F)F)c8)c(C(C)(C)O)cc7n6)CC5)CC4(F)F)CC3)c21 (stereo partly shown) ≥ 5%

Tell me its bioavailability given Cn1c(=O)n(C2CCC(=O)NC2=O)c2cccc(N3CC4(CCN(C[C@H]5CC[C@H](c6nc7cc(C(C)(C)O)c(NC(=O)c8cccc(C(F)(F)F)n8)cc7s6)CC5)CC4(F)F)C3)c21 (stereo partly shown) as the entry. ≥ 5%

Answer with reported bioavailability of COc1cc2nn([C@H]3CC[C@H](CN4CCC5(CCN(c6cccc7c6n(C)c(=O)n7C6CCC(=O)NC6=O)CC5)C(F)(F)C4)CC3)cc2cc1NC(=O)c1cncc(C)c1 (stereo partly shown) ≤ 5%

Look up bioavailability of COc1cc2nn([C@H]3CC[C@H](CN4CC[C@@H](c5cccc6c(C7CCC(=O)NC7=O)nn(C)c56)[C@H](F)C4)CC3)cc2cc1NC(=O)c1cncc(C#N)c1 (single isomer, unassigned) and report it. ≤ 5%
